- ASSAYED_TARGET: Dopamine D2 (DRD2S) (Homo sapiens)
- Sequence (P14416 1-414 isoform P14416-2): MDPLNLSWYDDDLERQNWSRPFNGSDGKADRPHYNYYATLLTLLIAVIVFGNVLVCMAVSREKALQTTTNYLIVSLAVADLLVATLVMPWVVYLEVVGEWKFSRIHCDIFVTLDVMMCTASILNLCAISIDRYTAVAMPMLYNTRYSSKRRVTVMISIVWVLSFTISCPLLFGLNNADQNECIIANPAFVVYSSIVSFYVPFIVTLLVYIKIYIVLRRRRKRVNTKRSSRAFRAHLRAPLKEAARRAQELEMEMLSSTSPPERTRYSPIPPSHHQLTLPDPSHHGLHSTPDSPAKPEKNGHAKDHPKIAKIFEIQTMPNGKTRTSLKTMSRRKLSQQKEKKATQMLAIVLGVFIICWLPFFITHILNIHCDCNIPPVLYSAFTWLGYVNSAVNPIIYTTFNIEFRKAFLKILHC
- TEST_METHOD_NOTES: Off‐target panel: Dopamine D2 (DRD2S) (DRX)
PROPERTY: EC50

# EC50 (compound: CCC[C@@H](NC(=O)c1cccc2c1CC(=O)N2)[C@@H](O)c1cccc(F)c1C ) is > 100 µM

###

- ASSAYED_TARGET: Serotonin 5HT3 (Homo sapiens, UniProt P46098)
- Sequence (P46098 24-478): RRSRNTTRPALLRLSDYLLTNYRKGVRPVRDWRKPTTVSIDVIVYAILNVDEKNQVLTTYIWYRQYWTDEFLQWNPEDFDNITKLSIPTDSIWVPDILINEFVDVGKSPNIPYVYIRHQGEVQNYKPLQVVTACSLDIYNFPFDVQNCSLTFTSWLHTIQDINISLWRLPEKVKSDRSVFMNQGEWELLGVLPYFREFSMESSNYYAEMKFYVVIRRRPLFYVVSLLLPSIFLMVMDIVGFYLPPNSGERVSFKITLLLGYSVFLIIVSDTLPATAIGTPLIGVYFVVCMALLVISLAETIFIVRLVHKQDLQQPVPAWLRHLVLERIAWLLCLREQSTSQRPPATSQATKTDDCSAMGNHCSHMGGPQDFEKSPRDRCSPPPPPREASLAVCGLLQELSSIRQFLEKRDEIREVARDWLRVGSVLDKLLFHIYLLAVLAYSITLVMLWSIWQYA
- TEST_METHOD_NOTES: Off‐target panel: Serotonin 5HT3
- Format: cell-based
PROPERTY: IC50 (µM)
Report only the number, with the unit µM understood.

# IC50 (molecule: CCC[C@@H](NC(=O)c1cccc2c1CC(=O)N2)[C@@H](O)c1cccc(F)c1C ) is 31.6

###

- ASSAYED_TARGET: Cannabinoid CB2 (Homo sapiens)
- Sequence (P34972 whole entry): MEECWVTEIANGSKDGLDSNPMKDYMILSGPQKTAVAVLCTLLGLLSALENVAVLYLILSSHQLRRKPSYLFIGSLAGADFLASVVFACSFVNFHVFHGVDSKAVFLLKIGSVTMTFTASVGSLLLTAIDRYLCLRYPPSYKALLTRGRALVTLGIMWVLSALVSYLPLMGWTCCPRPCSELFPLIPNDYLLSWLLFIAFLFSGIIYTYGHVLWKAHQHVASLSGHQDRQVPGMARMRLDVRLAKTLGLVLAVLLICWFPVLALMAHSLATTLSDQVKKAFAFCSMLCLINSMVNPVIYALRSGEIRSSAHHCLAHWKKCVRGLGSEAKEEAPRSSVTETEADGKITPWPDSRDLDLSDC
- TEST_METHOD_NOTES: Off‐target panel: Cannabinoid CB2
- Protocol: GSK716 selectivity and PK properties were profiled in order to investigate the suitability of GSK716 for progression into in vivo studies and the potential for taking it forward as a clinical candidate for testing in humans. Since GSK716 results in loss of inhibitory activity of α1‐antitrypsin, the effect of the compound was assessed on other closely related serpins. […]
pEC50: −log10 of the molar value.
PROPERTY: pEC50

# pEC50 (compound: CCC[C@@H](NC(=O)c1cccc2c1CC(=O)N2)[C@@H](O)c1cccc(F)c1C ) is < 4.00

###

- Test system: P-gp (MDR1)
- TEST_METHOD_NOTES: Permeability in MDR1‐MDCK cells with pgp inhibitor
- Assay type: in vitro ADME
- STUDY_CONDITIONS: dog, with pgp inhibitor GF120918, read-out: permeability, basal to apical
PROPERTY: Papp at 60 min (×10⁻⁶ cm/s)
Report only the number, with the unit ×10⁻⁶ cm/s understood.

# Papp at 60 min (compound: CCC[C@@H](NC(=O)c1cccc2c1CC(=O)N2)[C@@H](O)c1cccc(F)c1C [GSK716] ) is 24

###

- TEST_METHOD_NOTES: Total and unbound drug concentrations in blood and liver of Z α1‐antitrypsin transgenic mice
- Type: in vivo
- STUDY_CONDITIONS: female, Z α1-antitrypsin transgenic (hemizygous), mouse, whole blood, oral, 100 mg/kg, 100 mg/kg three times a day, time 128 h; read-out: UNBOUND mean concentration ± SD, Blood
PROPERTY: concentration at 128 h

# concentration at 128 h (compound: CCC[C@@H](NC(=O)c1cccc2c1CC(=O)N2)[C@@H](O)c1cccc(F)c1C ) is 180 nM

###

- ASSAYED_TARGET: OPRK1 (Homo sapiens, UniProt P41145)
- Sequence (P41145 whole entry, species assumed): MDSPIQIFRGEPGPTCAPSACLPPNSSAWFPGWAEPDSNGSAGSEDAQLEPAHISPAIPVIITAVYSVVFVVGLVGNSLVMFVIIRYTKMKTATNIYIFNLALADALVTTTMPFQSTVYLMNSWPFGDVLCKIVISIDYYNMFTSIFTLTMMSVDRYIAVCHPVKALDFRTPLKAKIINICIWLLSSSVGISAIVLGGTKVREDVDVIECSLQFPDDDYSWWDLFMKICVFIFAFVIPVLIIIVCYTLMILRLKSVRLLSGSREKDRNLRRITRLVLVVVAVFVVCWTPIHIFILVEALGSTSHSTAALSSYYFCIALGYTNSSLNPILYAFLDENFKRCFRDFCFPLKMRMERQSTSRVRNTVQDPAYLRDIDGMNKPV
- TEST_METHOD_NOTES: Off‐target panel: OPRK1 (DRX)
- Format: cell-based
PROPERTY: EC50 (µM)
Report only the number, with the unit µM understood.

# EC50 (molecule: CCC[C@@H](NC(=O)c1cccc2c1CC(=O)N2)[C@@H](O)c1cccc(F)c1C ) is 20

###

- ASSAYED_TARGET: Adrenergic α1B (Homo sapiens, UniProt P35368)
- Sequence (P35368 whole entry): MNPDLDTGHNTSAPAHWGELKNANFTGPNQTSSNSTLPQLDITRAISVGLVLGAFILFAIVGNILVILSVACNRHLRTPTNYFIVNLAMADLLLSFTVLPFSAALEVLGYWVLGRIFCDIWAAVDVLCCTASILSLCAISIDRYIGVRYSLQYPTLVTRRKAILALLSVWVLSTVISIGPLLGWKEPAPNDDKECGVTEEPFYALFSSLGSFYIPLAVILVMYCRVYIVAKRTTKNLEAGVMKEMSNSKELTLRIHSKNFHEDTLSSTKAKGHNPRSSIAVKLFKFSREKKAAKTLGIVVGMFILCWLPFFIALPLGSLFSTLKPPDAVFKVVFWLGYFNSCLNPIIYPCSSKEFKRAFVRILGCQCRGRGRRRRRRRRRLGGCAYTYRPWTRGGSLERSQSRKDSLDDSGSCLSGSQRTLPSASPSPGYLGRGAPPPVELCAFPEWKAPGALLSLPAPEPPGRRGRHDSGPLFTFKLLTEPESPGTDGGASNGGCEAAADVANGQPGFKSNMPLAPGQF
- TEST_METHOD_NOTES: Off‐target panel: Adrenergic α1B
- Assay type: cell-based
PROPERTY: IC50

# IC50 (compound: CCC[C@@H](NC(=O)c1cccc2c1CC(=O)N2)[C@@H](O)c1cccc(F)c1C ) is > 25.1 µM

###

- ASSAYED_TARGET: Muscarinic M2 (Homo sapiens)
- TEST_METHOD_NOTES: Off‐target panel: Muscarinic M2 (DRX)
- Format: cell-based
PROPERTY: EC50 (µM)
Report only the number, with the unit µM understood.

# EC50 (compound: CCC[C@@H](NC(=O)c1cccc2c1CC(=O)N2)[C@@H](O)c1cccc(F)c1C ) is 5.01

###

- TEST_METHOD_NOTES: Total and unbound drug concentrations in blood and liver of Z α1‐antitrypsin transgenic mice
- Type: in vivo
- STUDY_CONDITIONS: female, Z α1-antitrypsin transgenic (hemizygous), mouse, liver, oral, 30 mg/kg, 30 mg/kg three times a day, time 128 h; read-out: TOTAL mean concentration ± SD, Liver
PROPERTY: concentration at 128 h (µM)
Report only the number, with the unit µM understood.

# concentration at 128 h (compound: CCC[C@@H](NC(=O)c1cccc2c1CC(=O)N2)[C@@H](O)c1cccc(F)c1C [GSK716] ) is 8.3

###

- ASSAYED_TARGET: Muscarinic M2 (Homo sapiens, UniProt P08172)
- Sequence (P08172 whole entry): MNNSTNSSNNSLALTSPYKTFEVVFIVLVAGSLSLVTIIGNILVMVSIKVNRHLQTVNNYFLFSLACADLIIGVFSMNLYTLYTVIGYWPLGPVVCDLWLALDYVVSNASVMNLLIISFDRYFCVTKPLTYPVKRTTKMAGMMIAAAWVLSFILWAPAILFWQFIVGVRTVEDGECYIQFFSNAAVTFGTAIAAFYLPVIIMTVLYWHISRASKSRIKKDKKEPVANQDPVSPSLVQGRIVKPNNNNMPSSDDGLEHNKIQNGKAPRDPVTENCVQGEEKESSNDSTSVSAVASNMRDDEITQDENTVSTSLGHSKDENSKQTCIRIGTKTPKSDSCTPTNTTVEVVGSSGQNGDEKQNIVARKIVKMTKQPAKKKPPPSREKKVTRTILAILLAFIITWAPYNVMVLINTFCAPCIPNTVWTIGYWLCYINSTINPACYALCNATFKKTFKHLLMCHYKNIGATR
- TEST_METHOD_NOTES: Off‐target panel: Muscarinic M2
- Assay type: cell-based
pIC50: −log10 of the molar value.
PROPERTY: pIC50

# pIC50 (molecule: CCC[C@@H](NC(=O)c1cccc2c1CC(=O)N2)[C@@H](O)c1cccc(F)c1C [GSK716] ) is < 4.30

###

- ASSAYED_TARGET: Serotonin 5HT2C (Homo sapiens, UniProt P28335)
- TEST_METHOD_NOTES: Off‐target panel: Serotonin 5HT2C
- Format: cell-based
PROPERTY: EC50

# value of EC50, Serotonin 5HT2C (Homo sapiens, UniProt P28335), item CCC[C@@H](NC(=O)c1cccc2c1CC(=O)N2)[C@@H](O)c1cccc(F)c1C = > 25.1 µM

###

- ASSAYED_TARGET: NK1 (TACR1) (Homo sapiens)
- Sequence (P25103 whole entry, species assumed): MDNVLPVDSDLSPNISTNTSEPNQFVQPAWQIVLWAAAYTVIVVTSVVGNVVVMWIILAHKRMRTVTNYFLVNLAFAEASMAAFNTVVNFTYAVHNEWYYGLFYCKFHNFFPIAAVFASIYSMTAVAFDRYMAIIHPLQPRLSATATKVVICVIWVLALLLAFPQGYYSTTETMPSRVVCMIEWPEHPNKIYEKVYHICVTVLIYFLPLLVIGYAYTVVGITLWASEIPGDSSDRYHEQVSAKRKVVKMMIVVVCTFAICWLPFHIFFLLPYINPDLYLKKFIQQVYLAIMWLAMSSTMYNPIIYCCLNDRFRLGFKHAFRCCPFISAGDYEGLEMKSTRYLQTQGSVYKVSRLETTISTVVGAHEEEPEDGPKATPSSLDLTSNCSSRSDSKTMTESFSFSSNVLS
- TEST_METHOD_NOTES: Off‐target panel: NK1 (TACR1) (DRX)
- Type: cell-based
- STUDY_CONDITIONS: Antagonist, read-out: Mean (PXC50)
PROPERTY: IC50

# IC50 (molecule: CCC[C@@H](NC(=O)c1cccc2c1CC(=O)N2)[C@@H](O)c1cccc(F)c1C ) is > 25.1 µM

###

- ASSAYED_TARGET: MRGPRX2 (Homo sapiens)
- Sequence (Q96LB1 whole entry, species assumed): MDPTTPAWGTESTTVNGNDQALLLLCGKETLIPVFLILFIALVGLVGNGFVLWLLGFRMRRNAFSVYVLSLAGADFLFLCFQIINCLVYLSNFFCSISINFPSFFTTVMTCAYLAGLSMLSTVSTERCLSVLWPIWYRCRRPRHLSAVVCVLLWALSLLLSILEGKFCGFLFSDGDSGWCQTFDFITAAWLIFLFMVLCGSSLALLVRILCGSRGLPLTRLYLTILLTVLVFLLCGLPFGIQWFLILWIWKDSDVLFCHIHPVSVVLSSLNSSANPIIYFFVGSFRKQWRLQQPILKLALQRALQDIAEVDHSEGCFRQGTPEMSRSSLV
- TEST_METHOD_NOTES: Off‐target panel: MRGPRX2 Agonist (DRX)
- STUDY_CONDITIONS: read-out: Mean (PXC50)
PROPERTY: EC50

# value of EC50, MRGPRX2 (Homo sapiens), item CCC[C@@H](NC(=O)c1cccc2c1CC(=O)N2)[C@@H](O)c1cccc(F)c1C [GSK716] = > 100 µM

###

- ASSAYED_TARGET: Adrenergic β2 (Homo sapiens, UniProt P07550)
- Sequence (P07550 whole entry): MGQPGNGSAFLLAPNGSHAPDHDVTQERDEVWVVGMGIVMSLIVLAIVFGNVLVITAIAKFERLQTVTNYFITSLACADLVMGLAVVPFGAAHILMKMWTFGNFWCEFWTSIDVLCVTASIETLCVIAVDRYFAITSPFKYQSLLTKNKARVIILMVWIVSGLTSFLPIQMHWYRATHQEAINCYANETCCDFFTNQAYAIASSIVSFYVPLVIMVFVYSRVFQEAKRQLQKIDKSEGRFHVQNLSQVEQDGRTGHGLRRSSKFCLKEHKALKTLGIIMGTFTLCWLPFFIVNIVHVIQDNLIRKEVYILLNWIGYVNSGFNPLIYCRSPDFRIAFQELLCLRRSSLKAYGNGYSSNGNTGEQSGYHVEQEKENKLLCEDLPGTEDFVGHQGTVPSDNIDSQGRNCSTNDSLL
- TEST_METHOD_NOTES: Off‐target panel: Adrenergic β2 (DRX)
- Type: cell-based
- STUDY_CONDITIONS: Agonist, read-out: Mean (PXC50)
PROPERTY: EC50

# EC50 (molecule: CCC[C@@H](NC(=O)c1cccc2c1CC(=O)N2)[C@@H](O)c1cccc(F)c1C [GSK716] ) is > 100 µM

###

- ASSAYED_TARGET: UniProt:P28335
- Sequence (P28335 33-458): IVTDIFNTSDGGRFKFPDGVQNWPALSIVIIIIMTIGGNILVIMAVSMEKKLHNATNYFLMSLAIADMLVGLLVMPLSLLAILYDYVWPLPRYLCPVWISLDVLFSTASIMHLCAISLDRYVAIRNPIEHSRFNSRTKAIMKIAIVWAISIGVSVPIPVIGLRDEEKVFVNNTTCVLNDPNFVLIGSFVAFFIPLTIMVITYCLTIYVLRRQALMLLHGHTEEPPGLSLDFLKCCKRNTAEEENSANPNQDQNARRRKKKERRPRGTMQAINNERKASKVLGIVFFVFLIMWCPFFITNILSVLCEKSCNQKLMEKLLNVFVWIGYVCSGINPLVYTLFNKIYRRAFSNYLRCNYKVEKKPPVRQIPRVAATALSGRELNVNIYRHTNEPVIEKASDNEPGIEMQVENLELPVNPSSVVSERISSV
- TEST_METHOD_NOTES: Off‐target panel: Serotonin 5HT2C
- Type: cell-based
pIC50: −log10 of the molar value.
PROPERTY: pIC50

# pIC50 (compound: CCC[C@@H](NC(=O)c1cccc2c1CC(=O)N2)[C@@H](O)c1cccc(F)c1C ) is < 4.60

###

- ASSAYED_TARGET: OPRM1 (Homo sapiens, UniProt P35372)
- Sequence (P35372 whole entry, species assumed): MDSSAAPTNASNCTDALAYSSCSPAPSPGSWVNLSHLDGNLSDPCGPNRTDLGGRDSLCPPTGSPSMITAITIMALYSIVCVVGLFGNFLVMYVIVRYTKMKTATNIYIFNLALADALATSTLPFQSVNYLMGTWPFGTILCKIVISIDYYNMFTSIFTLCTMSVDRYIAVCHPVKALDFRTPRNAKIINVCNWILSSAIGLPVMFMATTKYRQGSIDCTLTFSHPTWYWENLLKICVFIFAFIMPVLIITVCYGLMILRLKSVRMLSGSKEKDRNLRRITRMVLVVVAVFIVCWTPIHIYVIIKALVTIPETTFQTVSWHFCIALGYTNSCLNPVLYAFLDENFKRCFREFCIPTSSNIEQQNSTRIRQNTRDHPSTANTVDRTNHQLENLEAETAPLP
- TEST_METHOD_NOTES: Off‐target panel: OPRM1
- Type: cell-based
PROPERTY: EC50

# EC50 (molecule: CCC[C@@H](NC(=O)c1cccc2c1CC(=O)N2)[C@@H](O)c1cccc(F)c1C ) is > 100 µM

###

- ASSAYED_TARGET: Kv1.5 (Homo sapiens, UniProt P22460)
- Sequence (P22460 whole entry): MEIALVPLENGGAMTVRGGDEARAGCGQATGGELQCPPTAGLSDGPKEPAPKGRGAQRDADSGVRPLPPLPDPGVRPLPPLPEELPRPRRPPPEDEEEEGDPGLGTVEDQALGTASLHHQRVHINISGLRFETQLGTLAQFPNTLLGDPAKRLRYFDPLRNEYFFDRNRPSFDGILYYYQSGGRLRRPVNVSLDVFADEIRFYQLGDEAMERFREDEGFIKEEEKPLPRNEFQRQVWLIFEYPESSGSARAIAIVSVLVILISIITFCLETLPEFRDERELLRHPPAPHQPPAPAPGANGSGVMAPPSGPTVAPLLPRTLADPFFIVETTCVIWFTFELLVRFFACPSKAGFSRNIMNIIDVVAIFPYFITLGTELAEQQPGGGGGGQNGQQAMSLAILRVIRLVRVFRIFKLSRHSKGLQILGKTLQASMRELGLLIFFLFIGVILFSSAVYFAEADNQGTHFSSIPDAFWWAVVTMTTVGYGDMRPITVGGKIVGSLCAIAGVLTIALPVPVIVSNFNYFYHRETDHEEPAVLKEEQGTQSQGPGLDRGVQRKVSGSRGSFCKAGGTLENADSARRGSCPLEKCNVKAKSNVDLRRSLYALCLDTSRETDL
- TEST_METHOD_NOTES: Off‐target panel: Kv1.5
- STUDY_CONDITIONS: Blocker, read-out: Mean (PXC50)
pIC50: −log10 of the molar value.
PROPERTY: pIC50

# value of pIC50, Kv1.5 (Homo sapiens, UniProt P22460), item CCC[C@@H](NC(=O)c1cccc2c1CC(=O)N2)[C@@H](O)c1cccc(F)c1C = < 4.30
